Target: Recombinant JAK3 (Homo sapiens)
Construct: purchased Carna Biosciences
Sequence (P52333 whole entry): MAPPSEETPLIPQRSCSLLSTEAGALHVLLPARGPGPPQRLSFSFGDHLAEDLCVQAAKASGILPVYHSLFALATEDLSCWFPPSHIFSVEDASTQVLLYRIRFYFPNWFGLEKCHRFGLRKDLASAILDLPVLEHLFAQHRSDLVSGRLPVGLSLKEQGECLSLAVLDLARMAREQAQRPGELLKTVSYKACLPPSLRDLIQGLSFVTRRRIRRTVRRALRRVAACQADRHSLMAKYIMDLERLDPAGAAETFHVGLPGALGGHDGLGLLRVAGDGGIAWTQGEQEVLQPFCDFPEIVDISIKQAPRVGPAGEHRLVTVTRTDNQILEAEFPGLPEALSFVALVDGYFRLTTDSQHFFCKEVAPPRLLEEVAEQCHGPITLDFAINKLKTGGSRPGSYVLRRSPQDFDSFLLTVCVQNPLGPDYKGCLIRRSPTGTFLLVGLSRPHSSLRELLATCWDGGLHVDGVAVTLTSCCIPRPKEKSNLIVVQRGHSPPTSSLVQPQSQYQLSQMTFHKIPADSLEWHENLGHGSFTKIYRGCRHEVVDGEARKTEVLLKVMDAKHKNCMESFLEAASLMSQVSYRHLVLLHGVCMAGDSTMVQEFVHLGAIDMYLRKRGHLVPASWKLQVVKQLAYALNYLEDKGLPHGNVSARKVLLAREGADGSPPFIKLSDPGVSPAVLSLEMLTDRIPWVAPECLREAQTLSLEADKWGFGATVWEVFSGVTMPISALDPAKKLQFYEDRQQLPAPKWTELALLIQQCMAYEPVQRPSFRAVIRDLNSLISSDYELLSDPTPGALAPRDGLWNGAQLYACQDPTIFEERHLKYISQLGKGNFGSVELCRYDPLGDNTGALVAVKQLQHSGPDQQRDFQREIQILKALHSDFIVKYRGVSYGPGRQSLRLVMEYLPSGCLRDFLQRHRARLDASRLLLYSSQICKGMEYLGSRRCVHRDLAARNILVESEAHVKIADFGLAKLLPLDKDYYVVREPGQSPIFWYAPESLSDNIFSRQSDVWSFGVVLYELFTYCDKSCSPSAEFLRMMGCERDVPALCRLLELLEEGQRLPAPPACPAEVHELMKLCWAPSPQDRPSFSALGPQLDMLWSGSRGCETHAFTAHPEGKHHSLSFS
Assay: JAK biochemical assay (LANCE Ultra TR-FRET), JAK3
Conditions: recombinant JAK3, TR-FRET; read-out: Biochemical Assay (μM) JAK3
quantity_name: IC50

Completed entries (count: 5):
| molecule | IC50 |
| --- | --- |
| N#CCCC(c1ccc(-n2cc(-c3ccnc4[nH]cnc34)cn2)nc1)C(F)(F)F (stereo not shown) | > 0.5 µM |
| CC(=O)N1CC(C(O)(c2ccc(-n3cc(-c4ccnc5[nH]cnc45)cn3)nc2)C(F)(F)F)C1 (stereo not shown) | > 0.03 µM |
| FC(F)(F)C(CCN1CCOCC1)c1ccc(-n2cc(-c3ccnc4[nH]cnc34)cn2)nc1 (stereo not shown) | < 0.1 µM |
| OC(c1ccnc(-n2cc(-c3ccnc4[nH]cnc34)cn2)c1)C(F)(F)F (stereo not shown) | < 0.1 µM |
| OC(c1ccc(-n2cc(-c3ccnc4[nH]cnc34)cn2)nc1)(C1CC1)C(F)(F)F (stereo not shown) | 0.007 µM |

Lookup: Would you mind telling me what IC50 value was observed for N#CCc1cccc(-n2cc(-c3ccnc4[nH]cnc34)cn2)c1 ?
Found: < 0.5 µM

Lookup: If you can, please state the reported IC50 value of CC(C)C(O)(c1ccc(-n2cc(-c3ccnc4[nH]cnc34)cn2)nc1)C(F)(F)F (stereo not shown) .
Found: < 0.1 µM

Lookup: Which IC50 value belongs to FC(F)(F)C(CCNC1CCCCC1)c1ccc(-n2cc(-c3ccnc4[nH]cnc34)cn2)nc1 (stereo not shown) ?
Found: < 0.1 µM

Lookup: Fill in: IC50 of CC(F)(c1ccc(-n2cc(-c3ccnc4[nH]cnc34)cn2)nc1)C(F)(F)F (stereo not shown) is ___
Found: > 0.5 µM

Lookup: Requested field: IC50. Item: N#CCNC(=O)c1cnc(-n2cc(-c3ccnc4[nH]cnc34)cn2)nc1
Found: < 0.5 µM

----------
Target: Recombinant TYK2 (Homo sapiens, UniProt P29597)
Construct: purchased Carna Biosciences
Sequence (P29597 whole entry): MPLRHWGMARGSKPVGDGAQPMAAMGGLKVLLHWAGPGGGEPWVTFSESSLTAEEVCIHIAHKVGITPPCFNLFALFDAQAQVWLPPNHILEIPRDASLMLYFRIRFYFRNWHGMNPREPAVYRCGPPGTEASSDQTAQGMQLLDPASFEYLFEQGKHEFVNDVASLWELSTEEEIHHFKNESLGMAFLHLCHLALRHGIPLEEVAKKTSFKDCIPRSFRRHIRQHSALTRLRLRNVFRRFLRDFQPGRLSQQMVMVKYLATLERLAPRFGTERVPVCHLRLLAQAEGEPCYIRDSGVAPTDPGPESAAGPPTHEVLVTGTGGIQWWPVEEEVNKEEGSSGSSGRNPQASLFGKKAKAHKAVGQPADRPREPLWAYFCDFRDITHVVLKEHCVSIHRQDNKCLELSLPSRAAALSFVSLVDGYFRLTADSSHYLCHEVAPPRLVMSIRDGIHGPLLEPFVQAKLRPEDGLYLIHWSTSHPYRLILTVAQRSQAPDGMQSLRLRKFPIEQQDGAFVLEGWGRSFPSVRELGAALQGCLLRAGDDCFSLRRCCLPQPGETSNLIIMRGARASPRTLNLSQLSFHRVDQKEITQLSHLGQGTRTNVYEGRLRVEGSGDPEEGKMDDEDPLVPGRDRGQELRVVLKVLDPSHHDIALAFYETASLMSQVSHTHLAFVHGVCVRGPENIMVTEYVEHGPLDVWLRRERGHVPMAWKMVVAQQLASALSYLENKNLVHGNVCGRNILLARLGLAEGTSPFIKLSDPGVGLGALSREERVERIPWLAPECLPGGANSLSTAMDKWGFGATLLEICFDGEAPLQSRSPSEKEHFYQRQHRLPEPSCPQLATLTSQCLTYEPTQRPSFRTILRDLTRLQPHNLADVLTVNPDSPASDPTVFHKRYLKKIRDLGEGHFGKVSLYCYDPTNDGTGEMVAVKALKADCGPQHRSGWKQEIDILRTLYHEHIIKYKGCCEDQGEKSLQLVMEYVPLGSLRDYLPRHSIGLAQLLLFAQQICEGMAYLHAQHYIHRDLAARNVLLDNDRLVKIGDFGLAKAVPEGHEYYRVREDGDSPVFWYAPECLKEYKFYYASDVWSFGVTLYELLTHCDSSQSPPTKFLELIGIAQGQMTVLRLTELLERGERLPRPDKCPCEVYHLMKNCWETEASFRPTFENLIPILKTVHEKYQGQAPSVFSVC
Assay: JAK biochemical assay (LANCE Ultra TR-FRET), TYK2
Conditions: recombinant TYK2, TR-FRET; read-out: Biochemical Assay (μM) TYK2
Let's look at some compounds and their measured IC50.

Lookup: Which IC50 value belongs to N#CC(c1ccc(-n2cc(-c3ccnc4[nH]cnc34)cn2)nc1)C1CC1 (centres unmarked) ?
Found: > 1 µM

Lookup: Item under review: O=S(=O)(CC1CC1)CC(c1ccc(-n2cc(-c3ccnc4[nH]cnc34)cn2)nc1)C(F)(F)F (centres unmarked) . Reported IC50?
Found: > 1 µM

Lookup: Entry O=C(NCC(F)(F)F)Nc1ccc(-c2ccnc3[nH]c(=O)[nH]c23)cn1 : reported IC50 = ?
Found: > 1 µM

Lookup: Report IC50 for FC(F)(F)C(CCNC1CCCCC1)c1ccc(-n2cc(-c3ccnc4[nH]cnc34)cn2)nc1 (centres unmarked) please.
Found: > 0.5 µM

Lookup: Please give the measured IC50 for this compound: OC(CN1CCOCC1)(c1ccc(-n2cc(-c3ccnc4[nH]cnc34)cn2)nc1)C(F)(F)F (centres unmarked)
Found: > 1 µM

Lookup: Field request: IC50 | item: OCCC(c1ccc(-n2cc(-c3ccnc4[nH]cnc34)cn2)nc1)C(F)(F)F (centres unmarked)
Found: > 0.5 µM

Lookup: Please report the recorded IC50 for N#Cc1ccc(-n2cc(-c3ccnc4[nH]cnc34)cn2)nc1 .
Found: > 10 µM

Lookup: I would be grateful if you could share the reported IC50 for NS(=O)(=O)CCC(c1ccc(-n2cc(-c3ccnc4[nH]cnc34)cn2)nc1)C(F)(F)F (centres unmarked) .
Found: > 1 µM

----------
Listing: IC50 of selected compounds
Target: Recombinant JAK1 (Homo sapiens)
Construct: purchased Carna Biosciences
Sequence (P23458 whole entry): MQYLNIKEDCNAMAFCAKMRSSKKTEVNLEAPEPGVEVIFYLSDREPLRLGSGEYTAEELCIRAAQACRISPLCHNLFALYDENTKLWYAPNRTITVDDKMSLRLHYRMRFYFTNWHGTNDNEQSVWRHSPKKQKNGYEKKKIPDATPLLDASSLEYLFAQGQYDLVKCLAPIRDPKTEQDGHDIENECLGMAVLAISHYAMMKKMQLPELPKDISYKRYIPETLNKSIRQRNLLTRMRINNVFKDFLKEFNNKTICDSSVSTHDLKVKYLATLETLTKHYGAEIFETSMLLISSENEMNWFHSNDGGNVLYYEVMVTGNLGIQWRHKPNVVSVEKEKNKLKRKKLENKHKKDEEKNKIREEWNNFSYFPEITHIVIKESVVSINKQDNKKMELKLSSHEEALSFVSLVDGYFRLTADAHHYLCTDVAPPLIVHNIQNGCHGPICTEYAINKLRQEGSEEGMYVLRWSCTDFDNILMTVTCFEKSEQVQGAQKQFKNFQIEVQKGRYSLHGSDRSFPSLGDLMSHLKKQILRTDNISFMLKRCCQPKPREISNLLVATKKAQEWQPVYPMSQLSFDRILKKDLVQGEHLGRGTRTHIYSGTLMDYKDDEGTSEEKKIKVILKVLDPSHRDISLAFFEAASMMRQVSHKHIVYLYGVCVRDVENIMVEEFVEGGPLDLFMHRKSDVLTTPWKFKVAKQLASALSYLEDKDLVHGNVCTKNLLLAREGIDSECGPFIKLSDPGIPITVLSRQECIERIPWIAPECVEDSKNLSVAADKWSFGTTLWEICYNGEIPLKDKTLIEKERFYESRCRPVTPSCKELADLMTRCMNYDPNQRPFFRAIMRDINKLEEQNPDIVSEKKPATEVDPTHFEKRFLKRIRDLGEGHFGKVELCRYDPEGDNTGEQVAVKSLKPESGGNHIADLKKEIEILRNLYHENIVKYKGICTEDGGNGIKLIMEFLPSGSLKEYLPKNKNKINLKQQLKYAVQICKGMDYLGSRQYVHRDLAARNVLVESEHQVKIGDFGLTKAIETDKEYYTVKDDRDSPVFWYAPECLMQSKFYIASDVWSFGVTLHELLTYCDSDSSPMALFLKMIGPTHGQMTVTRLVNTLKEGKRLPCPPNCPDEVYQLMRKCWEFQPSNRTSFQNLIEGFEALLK
Test: JAK biochemical assay (LANCE Ultra TR-FRET), JAK1
Conditions: recombinant JAK1, TR-FRET; read-out: Biochemical Assay (μM) JAK1
Description: Recombinant JAK1, JAK2, JAK3 and TYK2 (Carna Biosciences) were used to develop biochemical assays in 50 mM HEPES pH 7.5, 1 mM EGTA, 10 mM MgCl2, 2 mM DTT and 0.01% Tween-20. […] The intensity of the light emission is proportional to the level of ULight substrate phosphorylation. Compounds which interfere with JAK enzyme activity show a lesser substrate phosphorylation and values are projected in terms of % inhibition in comparison to vehicle control.

Worked examples follow.
| compound | target_of_assay | experimental_value |
| --- | --- | --- |
| N#CC(NC(=O)n1cc(-c2ccnc3[nH]cnc23)cn1)c1ccccc1 (centres unmarked) | Recombinant JAK1 (Homo sapiens) | > 0.5 µM |
| O=C(NCC(F)(F)F)Nc1ccc(-c2ccnc3[nH]cnc23)cc1 | Recombinant JAK1 (Homo sapiens) | < 0.5 µM |
| O=C(NCC1CCCC1)N1CCN(c2ccnc3[nH]c(=O)[nH]c23)CC1 | Recombinant JAK1 (Homo sapiens) | > 1 µM |
| N#CC1(c2ccc(-n3cc(-c4ccnc5[nH]cnc45)cn3)nc2)CC1 | Recombinant JAK1 (Homo sapiens) | < 0.5 µM |

Lookup: Item under review: O=C(Cc1ccc(-n2cc(-c3ccnc4[nH]cnc34)cn2)nc1)NCC(F)(F)F . Reported IC50?
Found: > 1 µM

Lookup: Please look up its IC50: N#CCc1cccc(-n2cc(-c3ccnc4[nH]cnc34)cn2)c1
Found: < 0.5 µM

Lookup: Name the reported IC50 value associated with the compound OC(CCN1CCOCC1)(c1ccc(-n2cc(-c3ccnc4[nH]cnc34)cn2)nc1)C(F)(F)F (centres unmarked)
Found: < 0.1 µM

Lookup: So what does the record say about IC50 for O=S(=O)(CCC(c1ccc(-n2cc(-c3ccnc4[nH]cnc34)cn2)nc1)C(F)(F)F)C1CC1 (centres unmarked) ?
Found: > 0.5 µM

Lookup: // query IC50 value for entry CC(C)NCCC(c1ccc(-n2cc(-c3ccnc4[nH]cnc34)cn2)nc1)C(F)(F)F (centres unmarked)
Found: < 0.1 µM

Lookup: Given the compound O=C(CCC(F)(F)F)n1cc(-c2ccnc3[nH]c(=O)[nH]c23)cn1 , what is its reported IC50?
Found: > 1 µM

Lookup: Report IC50 for N#CCc1ccc(-n2cc(-c3ccnc4[nH]cnc34)cn2)cc1 please.
Found: < 0.5 µM

----------
Molecular target: Recombinant JAK1 (Homo sapiens)
Construct: purchased Carna Biosciences
Assay: JAK biochemical assay (LANCE Ultra TR-FRET), JAK1
Settings: recombinant JAK1, TR-FRET; read-out: Biochemical Assay (μM) JAK1
quantity_name: IC50

In the examples that follow, each entry is paired with its recorded IC50.
| molecule | quantity_name | experimental_value |
| --- | --- | --- |
| O=C(NCC(F)(F)F)N1CCN(c2ccnc3[nH]c(-c4ccccc4)nc23)CC1 | IC50 | < 0.5 µM |
| CC(C)(O)CC(c1ccc(-n2cc(-c3ccnc4[nH]cnc34)cn2)nc1)C(F)(F)F (stereo not shown) | IC50 | > 0.1 µM |
| O=C(NCC(F)(F)F)n1cc(-c2ccnc3[nH]c(=O)[nH]c23)cn1 | IC50 | 0.041 µM |
| CNCCOC(c1ccc(-n2cc(-c3ccnc4[nH]cnc34)cn2)nc1)C(F)(F)F (stereo not shown) | IC50 | < 0.1 µM |
| CNC(=O)C[C@H](c1ccc(-n2cc(-c3ccnc4[nH]cnc34)cn2)nc1)C(F)(F)F | IC50 | < 0.1 µM |
| N#CCC(=O)N1CC(C(O)(c2ccc(-n3cc(-c4ccnc5[nH]cnc45)cn3)nc2)C(F)(F)F)C1 (stereo not shown) | IC50 | > 0.001 µM |

Lookup: What value of IC50 has been reported for the following molecule? CCN1CCC([C@@](O)(c2ccc(-n3cc(-c4ccnc5[nH]cnc45)cn3)nc2)C(F)(F)F)C1 (stereo partly shown)
Found: 0.003 µM

----------
Tested on: STAT5 phosphorylation by IL-2 in HT-2 cells
Experiment: STAT5 phosphorylation by IL-2 in HT-2 cells (HTRF)
Assay type: cell-based
Details: HT2, read-out: Cell based IC50 (μM) HT-2/IL-2
quantity_name: IC50 (µM)
Return type: number; implicit unit µM.

Lookup: Provide value of IC50 for this record tested with STAT5 phosphorylation by IL-2 in HT-2 cells: O=C(Nc1nc2cccc(-c3ccc(CN4CCS(=O)(=O)CC4)cc3)n2n1)C1CC1 [Filgotinib, filgotinib, reference compound]
Found: 0.95

----------
Target: Recombinant JAK1 (Homo sapiens)
Construct: purchased Carna Biosciences
Assay: JAK biochemical assay (LANCE Ultra TR-FRET), JAK1
Conditions: recombinant JAK1, TR-FRET; read-out: Biochemical Assay (μM) JAK1
quantity_name: IC50

| compound | experimental_value |
| --- | --- |
| O=C(NCC(F)(F)F)n1cc(-c2ccnc3[nH]c(C4CC4)nc23)cn1 [Example 1096] | > 10 µM |
| N#CCC(=O)NCCC(c1ccc(-n2cc(-c3ccnc4[nH]cnc34)cn2)nc1)C(F)(F)F (centres unmarked) [Example 1248] | < 0.1 µM |
| FC(F)(F)C(CCN1CCOCC1)c1ccc(-n2cc(-c3ccnc4[nH]cnc34)cn2)nc1 (centres unmarked) [Example 1201] | < 0.1 µM |
| FC(F)(F)C(CCNC1CC1)c1ccc(-n2cc(-c3ccnc4[nH]cnc34)cn2)nc1 (centres unmarked) [Example 1153] | < 0.1 µM |
| O=C(NCC(F)(F)F)n1cc(-c2cccc3[nH]c(=O)[nH]c23)cn1 [Example 1036] | > 10 µM |

Lookup: Sample CC(C#N)c1ccc(-n2cc(-c3ccnc4[nH]cnc34)cn2)nc1 (centres unmarked) [Example 1107] — what was its IC50?
Found: < 0.1 µM

Lookup: Request the reported IC50 associated with O=C(NC1CC1)NC(c1ccc(-n2cc(-c3ccnc4[nH]cnc34)cn2)nc1)C(F)(F)F (centres unmarked) [Example 1178]
Found: < 0.1 µM

Lookup: I have this compound here, CC(CCS(C)(=O)=O)c1ccc(-n2cc(-c3ccnc4[nH]cnc34)cn2)nc1 (centres unmarked) [Example 1163] , and I need its recorded IC50.
Found: > 0.5 µM
